Biological target: Human Cav2.2 channels (Homo sapiens, UniProt Q00975)
Construct: expressed in transfected cells
Sequence (Q00975 whole entry): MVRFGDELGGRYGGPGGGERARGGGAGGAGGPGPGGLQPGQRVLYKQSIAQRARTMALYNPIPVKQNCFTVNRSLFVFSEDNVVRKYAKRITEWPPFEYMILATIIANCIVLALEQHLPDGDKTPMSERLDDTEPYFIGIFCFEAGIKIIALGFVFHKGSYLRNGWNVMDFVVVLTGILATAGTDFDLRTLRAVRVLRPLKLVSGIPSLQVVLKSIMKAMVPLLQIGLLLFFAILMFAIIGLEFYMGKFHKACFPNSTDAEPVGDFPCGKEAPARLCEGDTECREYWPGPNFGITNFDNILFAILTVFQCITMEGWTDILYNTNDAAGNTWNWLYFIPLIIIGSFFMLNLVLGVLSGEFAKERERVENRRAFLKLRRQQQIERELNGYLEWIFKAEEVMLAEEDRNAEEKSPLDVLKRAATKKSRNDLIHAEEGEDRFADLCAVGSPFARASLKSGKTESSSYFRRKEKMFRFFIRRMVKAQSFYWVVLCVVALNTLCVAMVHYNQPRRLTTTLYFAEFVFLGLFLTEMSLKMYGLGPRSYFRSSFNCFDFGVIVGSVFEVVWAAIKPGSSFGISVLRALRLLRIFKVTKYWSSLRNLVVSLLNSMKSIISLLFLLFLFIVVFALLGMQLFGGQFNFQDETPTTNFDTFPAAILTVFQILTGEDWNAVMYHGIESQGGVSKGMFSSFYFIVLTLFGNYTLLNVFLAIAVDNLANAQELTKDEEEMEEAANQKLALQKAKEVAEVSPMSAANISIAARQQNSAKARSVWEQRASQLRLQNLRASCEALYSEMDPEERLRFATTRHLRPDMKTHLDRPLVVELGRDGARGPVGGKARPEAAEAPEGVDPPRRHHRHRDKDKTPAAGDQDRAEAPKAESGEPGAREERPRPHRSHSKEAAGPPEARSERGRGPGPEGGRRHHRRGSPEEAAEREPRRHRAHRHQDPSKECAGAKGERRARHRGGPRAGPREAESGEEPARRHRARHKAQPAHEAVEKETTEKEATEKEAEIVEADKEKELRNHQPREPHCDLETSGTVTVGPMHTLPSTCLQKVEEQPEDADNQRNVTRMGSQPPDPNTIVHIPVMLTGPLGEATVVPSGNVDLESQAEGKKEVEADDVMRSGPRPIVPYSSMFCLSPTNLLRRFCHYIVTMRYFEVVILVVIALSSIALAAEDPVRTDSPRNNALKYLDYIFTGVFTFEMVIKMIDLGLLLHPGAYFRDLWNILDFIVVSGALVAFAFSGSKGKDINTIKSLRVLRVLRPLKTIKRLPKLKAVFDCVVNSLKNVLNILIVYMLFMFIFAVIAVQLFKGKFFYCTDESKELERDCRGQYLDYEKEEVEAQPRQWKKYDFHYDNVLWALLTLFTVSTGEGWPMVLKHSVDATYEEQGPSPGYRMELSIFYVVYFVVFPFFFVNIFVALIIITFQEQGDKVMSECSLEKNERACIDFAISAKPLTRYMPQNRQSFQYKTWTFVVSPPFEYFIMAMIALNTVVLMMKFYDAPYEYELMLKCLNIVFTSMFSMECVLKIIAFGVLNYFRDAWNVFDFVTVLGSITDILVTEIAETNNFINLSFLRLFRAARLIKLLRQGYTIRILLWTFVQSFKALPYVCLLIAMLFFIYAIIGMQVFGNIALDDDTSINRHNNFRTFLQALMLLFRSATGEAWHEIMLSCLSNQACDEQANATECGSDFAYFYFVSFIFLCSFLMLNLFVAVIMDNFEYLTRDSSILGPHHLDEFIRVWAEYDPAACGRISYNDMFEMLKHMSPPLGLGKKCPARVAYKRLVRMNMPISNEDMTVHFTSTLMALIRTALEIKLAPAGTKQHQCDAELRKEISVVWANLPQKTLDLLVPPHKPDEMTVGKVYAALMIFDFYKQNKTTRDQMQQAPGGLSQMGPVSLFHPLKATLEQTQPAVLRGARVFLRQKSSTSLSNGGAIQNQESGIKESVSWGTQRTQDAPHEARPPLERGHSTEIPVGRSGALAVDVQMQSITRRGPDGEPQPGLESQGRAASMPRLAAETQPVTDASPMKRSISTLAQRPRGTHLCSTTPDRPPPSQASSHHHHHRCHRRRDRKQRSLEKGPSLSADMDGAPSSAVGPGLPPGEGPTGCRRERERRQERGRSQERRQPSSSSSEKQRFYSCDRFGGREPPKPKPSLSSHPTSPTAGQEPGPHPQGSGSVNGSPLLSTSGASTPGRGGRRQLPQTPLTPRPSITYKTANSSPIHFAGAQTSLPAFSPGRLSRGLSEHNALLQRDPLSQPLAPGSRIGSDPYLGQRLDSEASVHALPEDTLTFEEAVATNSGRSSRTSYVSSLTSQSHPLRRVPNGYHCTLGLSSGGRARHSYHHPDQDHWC
Sequence (P54289 25-1103 partner): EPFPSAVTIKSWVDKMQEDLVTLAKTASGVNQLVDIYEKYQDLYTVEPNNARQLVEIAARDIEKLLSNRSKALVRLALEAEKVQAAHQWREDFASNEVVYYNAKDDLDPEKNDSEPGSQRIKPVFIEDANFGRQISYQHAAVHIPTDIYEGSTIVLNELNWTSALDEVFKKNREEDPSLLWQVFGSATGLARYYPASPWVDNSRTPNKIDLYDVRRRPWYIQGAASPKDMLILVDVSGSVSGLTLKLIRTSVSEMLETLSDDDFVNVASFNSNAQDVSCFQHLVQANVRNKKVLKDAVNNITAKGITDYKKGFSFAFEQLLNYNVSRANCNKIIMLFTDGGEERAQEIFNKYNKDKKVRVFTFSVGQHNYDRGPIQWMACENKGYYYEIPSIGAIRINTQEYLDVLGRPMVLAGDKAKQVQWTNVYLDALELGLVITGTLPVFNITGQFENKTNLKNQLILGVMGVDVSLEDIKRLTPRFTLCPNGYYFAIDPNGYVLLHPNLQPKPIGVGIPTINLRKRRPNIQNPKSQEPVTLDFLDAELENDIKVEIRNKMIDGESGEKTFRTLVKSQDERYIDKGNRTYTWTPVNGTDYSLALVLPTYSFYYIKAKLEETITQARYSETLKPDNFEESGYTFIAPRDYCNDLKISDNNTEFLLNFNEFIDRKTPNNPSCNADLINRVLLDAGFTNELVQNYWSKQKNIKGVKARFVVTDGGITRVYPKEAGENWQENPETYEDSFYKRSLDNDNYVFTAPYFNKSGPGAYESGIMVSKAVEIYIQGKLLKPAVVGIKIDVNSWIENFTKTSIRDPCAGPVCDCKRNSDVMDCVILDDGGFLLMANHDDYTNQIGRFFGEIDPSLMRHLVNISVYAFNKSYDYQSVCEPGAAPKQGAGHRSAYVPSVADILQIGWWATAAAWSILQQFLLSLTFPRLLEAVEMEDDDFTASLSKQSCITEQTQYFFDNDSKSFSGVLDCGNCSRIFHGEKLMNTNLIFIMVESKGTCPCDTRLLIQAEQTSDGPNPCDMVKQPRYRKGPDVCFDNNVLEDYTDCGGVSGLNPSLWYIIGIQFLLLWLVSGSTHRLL
Sequence (P54284 whole entry partner): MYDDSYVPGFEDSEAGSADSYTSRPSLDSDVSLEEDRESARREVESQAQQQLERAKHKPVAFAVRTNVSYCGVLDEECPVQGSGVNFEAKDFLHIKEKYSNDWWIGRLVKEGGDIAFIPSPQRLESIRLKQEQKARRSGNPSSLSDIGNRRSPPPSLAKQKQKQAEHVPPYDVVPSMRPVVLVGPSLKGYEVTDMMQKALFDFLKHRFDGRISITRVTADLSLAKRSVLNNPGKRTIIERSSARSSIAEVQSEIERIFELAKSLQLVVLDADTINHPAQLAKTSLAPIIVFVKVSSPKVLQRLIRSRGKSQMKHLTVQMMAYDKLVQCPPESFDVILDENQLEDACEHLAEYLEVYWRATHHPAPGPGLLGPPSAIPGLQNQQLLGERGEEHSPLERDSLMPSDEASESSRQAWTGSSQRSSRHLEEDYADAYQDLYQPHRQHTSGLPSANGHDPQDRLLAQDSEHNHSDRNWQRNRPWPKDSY
Assay: Fluorescent assay for Cav2.2 channels using potassium depolarization to initiate channel opening
Assay type: cell-based
Conditions: 10 μM compound; read-out: Cav 2.2 Activity % Inh at 10 μM
Description: Human Cav2.2 channels were stably expressed in HEK293 cells along with alpha2-delta and beta subunits of voltage-gated calcium channels. […] Calcium influx through Cav2.2 channels is determined using a calcium sensitive fluorescent dye in combination with a fluorescent plate reader. Fluorescent changes were measured with either a VIPR (Aurora Instruments) or FLIPR (Molecular Devices) plate reader. • 1. […] Read cell plate on VIPR instrument, Excitation=480 nm, Emission=535 nm • 9. […]
observable: inhibition at 10 µM (%)

compound.structure.string	test.system	reported.result
CC(C)(C)NC(=O)C(C)(C)c1ccc(C(=O)NC2(C(=O)NCc3ccccc3)CCCCC2)cc1	Human Cav2.2 channels (Homo sapiens, UniProt Q00975)	89.6
COc1c(C(C)(C)C)cc(C(=O)NC2(C(=O)NCc3cccc(C(F)(F)F)c3)CCCCC2)cc1C(C)(C)C	Human Cav2.2 channels (Homo sapiens, UniProt Q00975)	81.4
COc1ccc(CNC(=O)C2(NC(=O)c3cc(C(C)(C)C)cc(C(C)(C)C)c3)CCCCC2)cc1	Human Cav2.2 channels (Homo sapiens, UniProt Q00975)	95.7

[P] CC(C)(C)c1cc(C(=O)NC2(C(=O)Nc3cccc(C(F)(F)F)c3)CCOCC2)ccn1
[Q] COc1ccc(CNC(=O)C2(NC(=O)c3cc(C(C)(C)C)cc(C(C)(C)C)c3)CCCC2)cc1
Exam item: For the pair P and Q , which member has the lower inhibition at 10 µM number? Lab log: write the label of the selected item as the result.
Marked response: P

[1] COc1c(C(C)(C)C)cc(CC(=O)NC2(C(=O)NCc3cccc(C(F)(F)F)c3)CCCCC2)cc1C(C)(C)C
[2] CC(C)(C)c1cc(C(=O)NC2(C(=O)N3CCN(Cc4ccccc4)CC3)CCCCC2)cc(C(C)(C)C)n1
Exam item: Which gives the smaller inhibition at 10 µM number: 1 or 2 ? Answer by stating the label of the chosen item.
Marked response: 1
(1: 48.2%, 2: 88.3%)
